Measured values drawn from ChEMBL document CHEMBL1133460 for this set.

test: Full panel mean-graph midpoint (MG-MID).
Outcome: yes (1) for MG-MID of at least 30 µM; no (0) for anything lower.

The following molecules have reported results that may help.
molecule="COc1ccc(/C=C2\\CN(C)CC3=C2N=C(S)NC3c2ccc(OC)cc2)cc1 (stereo not given)" group="yes (1)"
molecule="COc1ccc(/C=C2\\CN(C)CC3=C2OC(N)=C(C#N)C3c2ccc(OC)cc2)cc1 (stereo not given)" group="yes (1)"
molecule="CN1C/C(=C\\c2cccs2)C2=NN(c3ccccc3)C(c3cccs3)C2C1 (stereo not given)" group="no (0)"
molecule="CN1CC2=C(OC(N)=C(C#N)C2c2cccs2)/C(=C/c2cccs2)C1 (stereo not given)" group="no (0)"

Now take the following molecule into account.
Dear colleague, could you confirm whether Cc1ccc(/C=C2\CN(C)CC3=C2OC(N)=C(C#N)C3c2ccc(C)cc2)cc1 (stereo not given) has MG-MID at or above 30 µM?
no (0)

###

tested on: Panel prostate (Carcinoma cell lines); experiment: In vitro median growth inhibitory concentration against prostate cancer cell lines; type: functional; conditions: Homo sapiens
Property Name: GI50 (µM)
Write the value in µM as a bare number.

compound="CN1C/C(=C\\c2cccs2)C2=NN(c3ccccc3)C(c3cccs3)C2C1 (centres undefined)" assay_target="Panel prostate (Carcinoma cell lines)" unit_descriptor=µM assay_result=19.3
compound="COc1ccc(/C=C2\\CN(C)CC3=C2N=C(S)NC3c2ccc(OC)cc2)cc1 (centres undefined)" assay_target="Panel prostate (Carcinoma cell lines)" unit_descriptor=µM assay_result=9.1
compound="Cc1ccc(/C=C2\\CN(C)CC3C2=NN(c2ccccc2)C3c2ccc(C)cc2)cc1 (centres undefined)" assay_target="Panel prostate (Carcinoma cell lines)" unit_descriptor=µM assay_result=69.5
compound="Cc1ccc(/C=C2\\CN(C)CC3=C2N=C(S)NC3c2ccc(C)cc2)cc1 (centres undefined)" assay_target="Panel prostate (Carcinoma cell lines)" unit_descriptor=µM assay_result=38.3
compound=COc1ccc(/C=C2\CN(C)Cc3c2nc(O)c(C#N)c3-c2ccc(OC)cc2)cc1 assay_target="Panel prostate (Carcinoma cell lines)" unit_descriptor=µM assay_result=70.9

# input for lookup
Tell me its GI50 given CN1C/C(=C\c2cccs2)C2=NN(C)C(c3cccs3)C2C1 (centres undefined) as the entry.
59.5

###

Recorded measurements of EC50, one per entry
assay: In vitro effective concentration against HIV-1 cytopathic effect in T4 cells; type: functional, cell-based; conditions: Homo sapiens
# unit: µM | format: bare number

compound=CN1C/C(=C\c2ccncc2)C(=O)/C(=C/c2ccncc2)C1 unit_descriptor=µM assay_result=64.7

Indicate its recorded EC50; the compound in question is Cc1cn([C@H]2C[C@H](N=[N+]=[N-])[C@@H](CO)O2)c(=O)[nH]c1=O [ZIDOVUDINE]
0.0007

###

system: Human alphaherpesvirus 1; test: Concentration which caused 50% loss of the monolayer present around the viral plaques in uM; assay type: functional, organism-based
Property Name: IC50 (nM)
I only need the number, in nM, no unit after it.

Reference set (4 entries):
smiles_record=COc1ccc(/C=C2\CN(C)C/C(=C\c3ccc(OC)cc3)C2O)cc1 assay_result=120
smiles_record=CN1C/C(=C\c2cccs2)C(=O)/C(=C/c2cccs2)C1 assay_result=660
smiles_record=C[C@@]1(CO)[C@H](O)CC[C@@]2(C)[C@H]1CC[C@H]1C[C@@H]3C[C@@]12CC[C@]3(O)CO assay_result=590
smiles_record=CN1C/C(=C\c2ccc(Cl)cc2)C(=O)/C(=C/c2ccc(Cl)cc2)C1 assay_result=690

Lab note: next compound to report on.
Given the compound Cc1ccc(/C=C2\CN(C)C/C(=C\c3ccc(C)cc3)C2O)cc1 , write its reported IC50.
630
